These entries and their values trace back to the Human Domainome abundance scans (Beltran et al. 2025).

B1: DnaJ homolog subfamily C member 2, residues 451 to 503; numbered along this chain, Q99543 (parent)
chain: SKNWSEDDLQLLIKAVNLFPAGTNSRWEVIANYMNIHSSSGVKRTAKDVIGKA

Variants of: B1
Experiment: abundance fitness (aPCA) (normalised: wild type 0, dead -1); higher = more abundant; growth selection in yeast, the domain comes from the species named
Details: Homo sapiens
# binning rule on abundance fitness: interval 1: < -0.5; interval 2: ≥ -0.5 and < -0.2; interval 3: ≥ -0.2

>  <mutation.notation>
S40E

>  <answer.label>
interval 2

$$$$
>  <mutation.notation>
K2E

>  <answer.label>
interval 3

$$$$
>  <mutation.notation>
N24P

>  <answer.label>
interval 3

$$$$
>  <mutation.notation>
S1G

>  <answer.label>
interval 3

$$$$
>  <mutation.notation>
L12G

>  <answer.label>
interval 1

$$$$
>  <mutation.notation>
Y33V

>  <answer.label>
interval 1

$$$$
>  <mutation.notation>
K14C

>  <answer.label>
interval 2

$$$$
>  <mutation.notation>
D7E

>  <answer.label>
interval 3

$$$$
>  <mutation.notation>
E28A

>  <answer.label>
interval 2

$$$$
>  <mutation.notation>
S40T

>  <answer.label>
interval 3

$$$$
>  <mutation.notation>
N32F

>  <answer.label>
interval 1

$$$$
>  <mutation.notation>
N35G

>  <answer.label>
interval 1

$$$$
>  <mutation.notation>
S38N

>  <answer.label>
interval 3

$$$$
>  <mutation.notation>
K52V

>  <answer.label>
interval 3

$$$$
>  <mutation.notation>
G51F

>  <answer.label>
interval 3

$$$$
>  <mutation.notation>
E28K

>  <answer.label>
interval 2

$$$$
>  <mutation.notation>
I30F

>  <answer.label>
interval 1

$$$$
>  <mutation.notation>
V16L

>  <answer.label>
interval 3

$$$$
>  <mutation.notation>
I13P

>  <answer.label>
interval 1

$$$$
>  <mutation.notation>
N17P

>  <answer.label>
interval 1

$$$$
>  <mutation.notation>
D7H

>  <answer.label>
interval 2

$$$$
>  <mutation.notation>
L12R

>  <answer.label>
interval 1

$$$$
>  <mutation.notation>
N24V

>  <answer.label>
interval 3

$$$$
